target: ScRvs167; test: SPOT peptide array binding signal intensity (averaged, normalized) (arbitrary units (background-subtracted, floor 0; scale differs between SH3 domains)); higher = stronger binding of the SH3 domain to the peptide
Property: SPOT peptide array binding signal intensity; scope: individual binders
Respond numerically, and do not add a unit to the figure.

Example results:
TPTSGPPLLPPRNTM | 2570
MKRSRPSRSIPYTTP | 19.8
LKVTPGRRAPTISKI | 0.333
QPWTDQFEKLEKEVS | 1
IKTRSVPKIPSIESV | 2950
KRNRLKILLPFLEQS | 18.2

Here's the next entry for you.
Challenge: Give recorded SPOT peptide array binding signal intensity. SRSKPLPLTPNSKYN
Response given: 2.33
